These measurements were taken from ChEMBL document CHEMBL3091454.

experiment: Metabolic stability in rat liver microsomes assessed as compound remaining at 10 uM after 1 hr in presence of NADPH; type: ADME; conditions: read-out: Stability
OUTCOME MEASURE: remaining at 1 h, 10 µM (%)

P: CN(C1CCN(C(=O)c2ccccc2S(C)(=O)=O)CC1)S(=O)(=O)c1cccc(C(F)(F)F)c1
Q: CS(=O)(=O)c1cc(C(F)(F)F)ccc1C(=O)N1CCC2(CCN(S(=O)(=O)c3cccc(C(F)(F)F)c3)CC2)C1
R: CS(=O)(=O)c1ccc(C(=O)N2CCC3(CCN(S(=O)(=O)c4cccc(C(F)(F)F)c4)CC3)C2)c(C(F)(F)F)c1
S: CS(=O)(=O)c1ccc(C(=O)N2CC(N(C3CC3)S(=O)(=O)c3cccc(C(F)(F)F)c3)C2)c(C(F)(F)F)c1
Kindly order the items shown according to remaining at 1 h, 10 µM, from the highest value down. Response field: labels, in requested order.
S, P, Q, R
(S: 72%, P: 18%, Q: 12%, R: 3.8%)
